# Tested on: SH-SY5Y cells
# test.protocol: MTT cytotoxicity on SH-SY5Y cells
# Type: cell-based, human
# conditions: MTT test, 24 h incubation; read-out: IC50, in vitro cytotoxicity on SH-SY5Y cells
// reported IC50 for each item listed
reported.property: IC50 (µM)

compound	experimental.value
O=C(CCn1c(=S)n(CCC(=O)NN=Cc2cccc(O)c2O)c2ccccc21)NN=Cc1cccc(O)c1O [3h]	296
COc1ccc(C=NNC(=O)CCn2c(=S)n(CCC(=O)NN=Cc3ccc(OC)cc3O)c3ccccc32)c(O)c1 [3m]	211
COc1cccc(O)c1C=NNC(=O)CCn1c(=S)n(CCC(=O)NN=Cc2c(O)cccc2OC)c2ccccc21 [3n]	269
O=C(CCn1c(=S)n(CCC(=O)NN=Cc2ccc(O)cc2O)c2ccccc21)NN=Cc1ccc(O)cc1O [3i]	301
O=C(CCn1c(=S)n(CCC(=O)NN=Cc2ccccc2O)c2ccccc21)NN=Cc1ccccc1O [3e]	235
COc1cc(C=NNC(=O)CCn2c(=S)n(CCC(=O)NN=Cc3cc(OC)c(O)c(OC)c3)c3ccccc32)cc(OC)c1O [3d]	268
COc1cc(O)ccc1C=NNC(=O)CCn1c(=S)n(CCC(=O)NN=Cc2ccc(O)cc2OC)c2ccccc21 [3p]	254
COc1cccc(C=NNC(=O)CCn2c(=S)n(CCC(=O)NN=Cc3cccc(OC)c3O)c3ccccc32)c1O [3l]	200

* * *

// reported melting point for each item listed

compound	melting point
O=C(CCn1c(=S)n(CCC(=O)NN=Cc2ccccc2O)c2ccccc21)NN=Cc1ccccc1O [3e]	272 to 273 °C
O=C(CCn1c(=S)n(CCC(=O)N/N=C/c2ccccc2)c2ccccc21)N/N=C/c1ccccc1 [3a]	246 to 248 °C
O=C(CCn1c(=S)n(CCC(=O)NN=Cc2ccc(O)cc2)c2ccccc21)NN=Cc1ccc(O)cc1 [3g]	281 to 283 °C
O=C(CCn1c(=S)n(CCC(=O)NN=Cc2ccc(O)c(O)c2)c2ccccc21)NN=Cc1ccc(O)c(O)c1 [3j]	212 to 214 °C
COc1ccc(C=NNC(=O)CCn2c(=S)n(CCC(=O)NN=Cc3ccc(OC)c(OC)c3)c3ccccc32)cc1OC [3c]	239 to 241 °C
COc1cccc(C=NNC(=O)CCn2c(=S)n(CCC(=O)NN=Cc3cccc(OC)c3O)c3ccccc32)c1O [3l]	268 to 270 °C
COc1cc(C=NNC(=O)CCn2c(=S)n(CCC(=O)NN=Cc3ccc(O)c(OC)c3)c3ccccc32)ccc1O [3b]	229 to 231 °C
O=C(CCn1c(=S)n(CCC(=O)NN=Cc2cccc(O)c2)c2ccccc21)NN=Cc1cccc(O)c1 [3f]	223 to 224 °C

* * *

// reported IC50 at 24 h for each item listed
# test.protocol: MTT cytotoxicity on SH-SY5Y cells
# Format: cell-based, human
# conditions: human, SH-SY5Y neuroblastoma cells, MTT test, 24 h incubation; read-out: IC50, in vitro cytotoxicity on SH-SY5Y cells
reported.property: IC50 at 24 h (µM)

molecule	reported.property	readout.units	experimental.value
COc1cc(/C=N/NC(=O)CCn2c(=S)n(CCC(=O)N/N=C/c3cc(O)c(O)c(OC)c3)c3ccccc32)cc(O)c1O [3q]	IC50 at 24 h	µM	77.7
O=C(CCn1c(=S)n(CCC(=O)NN=Cc2ccc(O)c(O)c2)c2ccccc21)NN=Cc1ccc(O)c(O)c1 [3j]	IC50 at 24 h	µM	187

* * *

# test.protocol: MTT cytotoxicity on SH-SY5Y cells
# Assay type: cell-based, human
# conditions: human, SH-SY5Y neuroblastoma cells, MTT test, 24 h incubation; read-out: IC50, in vitro cytotoxicity on SH-SY5Y cells
Counter-ions that a name gives are not always drawn.
In plain terms, low IC50 at 24 h, meaning strictly below 80 µM, gives TRUE, and everything else gives FALSE.

molecule	label.class
O=C(CCn1c(=S)n(CCC(=O)NN=Cc2ccc(O)c(O)c2O)c2ccccc21)NN=Cc1ccc(O)c(O)c1O [3k]	TRUE
O=C(CCn1c(=S)n(CCC(=O)N/N=C/c2ccccc2)c2ccccc21)N/N=C/c1ccccc1 [3a]	FALSE
O=C(CCn1c(=S)n(CCC(=O)NN=Cc2ccc(O)cc2O)c2ccccc21)NN=Cc1ccc(O)cc1O [3i]	FALSE
O=C(CCn1c(=S)n(CCC(=O)NN=Cc2ccccc2O)c2ccccc21)NN=Cc1ccccc1O [3e]	FALSE
COc1cccc(C=NNC(=O)CCn2c(=S)n(CCC(=O)NN=Cc3cccc(OC)c3O)c3ccccc32)c1O [3l]	FALSE
COc1ccc(C=NNC(=O)CCn2c(=S)n(CCC(=O)NN=Cc3ccc(OC)c(OC)c3)c3ccccc32)cc1OC [3c]	FALSE
C#CCN[C@@H]1CCc2ccccc21 [Rasagiline HCl, Rasagiline]	FALSE
COc1cc(C=NNC(=O)CCn2c(=S)n(CCC(=O)NN=Cc3cc(OC)c(O)c(OC)c3)c3ccccc32)cc(OC)c1O [3d]	FALSE
COc1ccc(C=NNC(=O)CCn2c(=S)n(CCC(=O)NN=Cc3ccc(OC)c(O)c3)c3ccccc32)cc1O [3o]	TRUE
COc1cc(C=NNC(=O)CCn2c(=S)n(CCC(=O)NN=Cc3ccc(O)c(OC)c3)c3ccccc32)ccc1O [3b]	FALSE
COc1cccc(O)c1C=NNC(=O)CCn1c(=S)n(CCC(=O)NN=Cc2c(O)cccc2OC)c2ccccc21 [3n]	FALSE
COc1cc(O)ccc1C=NNC(=O)CCn1c(=S)n(CCC(=O)NN=Cc2ccc(O)cc2OC)c2ccccc21 [3p]	FALSE
O=C(CCn1c(=S)n(CCC(=O)NN=Cc2cccc(O)c2O)c2ccccc21)NN=Cc1cccc(O)c1O [3h]	FALSE

* * *

// reported cell viability protection vs. H2O2-treatment for each item listed
# Tested on: SH-SY5Y cells
# test.protocol: H2O2-induced oxidative stress model in SH-SY5Y cells
# Type: cell-based, human
# conditions: 50 µM, 90 min pre-incubation, H2O2 1 mM 15 min
Where a name gives a salt, the structure may show the parent alone.
reported.property: cell viability protection vs. H2O2-treatment (%)

compound	readout.units	experimental.value
O=C(CCn1c(=S)n(CCC(=O)NN=Cc2ccc(O)cc2O)c2ccccc21)NN=Cc1ccc(O)cc1O [3i]	%	80
C#CCN[C@@H]1CCc2ccccc21 [Rasagiline HCl, Rasagiline]	%	39
COc1ccc2[nH]cc(CCNC(C)=O)c2c1 [Melatonin]	%	52
O=C(CCn1c(=S)n(CCC(=O)NN=Cc2cccc(O)c2O)c2ccccc21)NN=Cc1cccc(O)c1O [3h]	%	79

* * *

// reported melting point for each item listed
reported.property: melting point

O=C(CCn1c(=S)n(CCC(=O)NN=Cc2ccc(O)c(O)c2O)c2ccccc21)NN=Cc1ccc(O)c(O)c1O 279 to 280 °C
COc1ccc(C=NNC(=O)CCn2c(=S)n(CCC(=O)NN=Cc3ccc(OC)c(O)c3)c3ccccc32)cc1O 255 to 257 °C
COc1cc(/C=N/NC(=O)CCn2c(=S)n(CCC(=O)N/N=C/c3cc(O)c(O)c(OC)c3)c3ccccc32)cc(O)c1O 174 to 176 °C
COc1cc(O)ccc1C=NNC(=O)CCn1c(=S)n(CCC(=O)NN=Cc2ccc(O)cc2OC)c2ccccc21 205 to 207 °C
COc1cccc(O)c1C=NNC(=O)CCn1c(=S)n(CCC(=O)NN=Cc2c(O)cccc2OC)c2ccccc21 272 to 274 °C
COc1cc(C=NNC(=O)CCn2c(=S)n(CCC(=O)NN=Cc3cc(OC)c(O)c(OC)c3)c3ccccc32)cc(OC)c1O 284 to 286 °C
COc1ccc(C=NNC(=O)CCn2c(=S)n(CCC(=O)NN=Cc3ccc(OC)cc3O)c3ccccc32)c(O)c1 247 to 249 °C
O=C(CCn1c(=S)n(CCC(=O)NN=Cc2cccc(O)c2O)c2ccccc21)NN=Cc1cccc(O)c1O 246 to 248 °C
O=C(CCn1c(=S)n(CCC(=O)NN=Cc2ccc(O)cc2O)c2ccccc21)NN=Cc1ccc(O)cc1O 254 to 256 °C
